tested on: MDA-MB-231; experiment: CTG-3D luminescence at 96 h relative to day-0 seeding control (ratio to day 0); higher = more growth / less cytotoxicity; PDxO 3D drug screen, 96 h, CTG-3D normalised to day-0 seeding control.; settings: 0.005 µM
Tag: met if measured CTG-3D luminescence at 96 h is not below 4, not met if it is.

Smiles Text | Label
NC(=O)c1cccc2cn(-c3ccc([C@@H]4CCCNC4)cc3)nc12 | met
COc1cccc2c1C(=O)c1c(O)c3c(c(O)c1C2=O)C[C@@](O)(C(=O)CO)C[C@@H]3O[C@H]1C[C@H](N)[C@H](O)[C@H](C)O1 | met
C=CC(=O)N1CCC[C@@H](n2nc(-c3ccc(Oc4ccccc4)cc3)c3c(N)ncnc32)C1 | met
CCN(c1cc(C#CCN2CCOCC2)cc(C(=O)NCc2c(C)cc(C)[nH]c2=O)c1C)[C@H]1CC[C@H](N(C)CCOC)CC1 | met
CCc1c2c(nc3ccc(O)cc13)-c1cc3c(c(=O)n1C2)COC(=O)[C@]3(O)CC | not met
CC[C@H](NC(=O)[C@H](C)NC)C(=O)N1C[C@@H](O)C[C@H]1Cc1c(-c2[nH]c3cc(F)ccc3c2C[C@@H]2C[C@H](O)CN2C(=O)[C@H](CC)NC(=O)[C@H](C)NC)[nH]c2cc(F)ccc12 | met

Confirm if CTG-3D luminescence at 96 h reported for the compound O=C(O)C1(C(=O)O)CCC1.[NH2-].[NH2-].[Pt+2] is 4 or above.
met

What do you get for O=C(c1ccc(F)c(F)c1Nc1ccc(I)cc1F)N1CC(O)([C@@H]2CCCCN2)C1 ?
met

What do you get for C/C=C1\NC(=O)[C@H]2CSSCC/C=C/[C@H](CC(=O)N[C@H](C(C)C)C(=O)N2)OC(=O)[C@H](C(C)C)NC1=O ?
not met

What do you get for Cc1cc(Nc2ncc(Cl)c(Nc3ccccc3S(=O)(=O)C(C)C)n2)c(OC(C)C)cc1C1CCNCC1 ?
met

----------
tested on: HCI-012 (organoid from a breast cancer xenograft); experiment: CTG-3D luminescence at 96 h relative to day-0 seeding control (ratio to day 0); higher = more growth / less cytotoxicity; PDxO 3D drug screen (set 2), 96 h, CTG-3D normalised to day-0 seeding control.; conditions: 625 fM; days in culture: 256
Property Label: CTG-3D luminescence at 96 h
Give bare numbers.

Molecule | Property Label | Readout Value
CCOc1ccn(-c2ccc(F)cc2)c(=O)c1C(=O)Nc1ccc(Oc2ccnc(N)c2Cl)c(F)c1 [ASLAN002] | CTG-3D luminescence at 96 h | 2.4
Nc1cc(C(F)(F)F)c(-c2cc(N3CCOCC3)nc(N3CCOCC3)n2)cn1 [buparlisib] | CTG-3D luminescence at 96 h | 1.97
CC(C)n1nc(-c2ccc3oc(N)nc3c2)c2c(N)ncnc21 [sapanisertib] | CTG-3D luminescence at 96 h | 2.12

What value of CTG-3D luminescence at 96 h has been reported for the following molecule? COc1cccc2c1C(=O)c1c(O)c3c(c(O)c1C2=O)C[C@@](O)(C(=O)CO)C[C@@H]3O[C@H]1C[C@H](N)[C@@H](O)[C@H](C)O1 [epirubicin]
2.4

----------
tested on: HCI-024 (organoid from a breast cancer xenograft); experiment: CTG-3D luminescence at 96 h relative to day-0 seeding control (ratio to day 0); higher = more growth / less cytotoxicity; PDxO 3D drug screen, 96 h, CTG-3D normalised to day-0 seeding control.; conditions: 1 µM; days in culture: 163
Property Label: CTG-3D luminescence at 96 h
Give bare numbers.

Smiles Text | CTG-3D luminescence at 96 h
NC1(C(=O)N[C@@H](CCO)c2ccc(Cl)cc2)CCN(c2nc[nH]c3nccc2-3)CC1 | 1.56

Answer for every listed entry: what is its CTG-3D luminescence at 96 h? The entries follow.
1. CC[C@H](NC(=O)[C@H](C)NC)C(=O)N1C[C@@H](O)C[C@H]1Cc1c(-c2[nH]c3cc(F)ccc3c2C[C@@H]2C[C@H](O)CN2C(=O)[C@H](CC)NC(=O)[C@H](C)NC)[nH]c2cc(F)ccc12
2. CCN(c1cc(C#CCN2CCOCC2)cc(C(=O)NCc2c(C)cc(C)[nH]c2=O)c1C)[C@H]1CC[C@H](N(C)CCOC)CC1

1: 0.255; 2: 2.29

Answer for every listed entry: what is its CTG-3D luminescence at 96 h? The entries follow.
1. CC(=O)O[C@H]1C(=O)[C@@]2(C)[C@H]([C@H](OC(=O)c3ccccc3)[C@]3(O)C[C@H](OC(=O)[C@H](O)[C@@H](NC(=O)c4ccccc4)c4ccccc4)C(C)=C1C3(C)C)[C@]1(OC(C)=O)CO[C@@H]1C[C@@H]2O
2. COc1cccc2c1C(=O)c1c(O)c3c(c(O)c1C2=O)C[C@@](O)(C(=O)CO)C[C@@H]3O[C@H]1C[C@H](N)[C@H](O)[C@H](C)O1

[1.65, 1.38]

Answer for every listed entry: what is its CTG-3D luminescence at 96 h? The entries follow.
1. NC(=O)Nc1cc(-c2cccc(F)c2)sc1C(=O)N[C@H]1CCCNC1
2. COc1cc2c(Oc3ccc4[nH]c(C)cc4c3F)ncnc2cc1OCCCN1CCCC1
3. Nc1ccn([C@@H]2O[C@H](CO)[C@@H](O)C2(F)F)c(=O)n1

1. 0.309
2. 1.92
3. 1.15
